I'd appreciate it if you could supply viability at 72 h, 9.38 mg/L values for the items below.
- assay.text: In vitro cytotoxicity (resazurin, 72 h)
- measurement.conditions: human

Sample O=C(/C=C/c1ccccc1)c1cccc(O)c1 [3′-HC, 3′-hydroxychalcone] ; viability at 72 h, 9.38 mg/L observed: > 80%

Record O=C(/C=C/c1ccccc1O)c1ccccc1 [2-HC, 2-hydroxychalcone] . Reported viability at 72 h, 9.38 mg/L: > 80%

###

- Tested on: Candida glabrata ATCC 90030
- assay.text: In vitro susceptibility, CLSI M27-A3 broth microdilution (MIC/MFC)
- Assay type: cell-based
- measurement.conditions: Nakaseomyces glabratus, ATCC90030; C. glabrata ATCC 90030
reported.endpoint: MFC (µg/mL)
Expressed in µg/mL, but write only the number.

Record O=C(/C=C/c1ccccc1)c1cccc(O)c1 [3′-HC, 3′-hydroxychalcone] has Candida glabrata ATCC 90030 MFC equal to 31.3

Entry C[C@@H]1[C@H](O)[C@@H](C)/C=C/C=C/C=C/C=C/C=C/C=C/C=C/[C@H](O[C@@H]2O[C@H](C)[C@@H](O)[C@H](N)[C@@H]2O)C[C@@H]2O[C@](O)(C[C@@H](O)C[C@@H](O)[C@H](O)CC[C@@H](O)C[C@@H](O)CC(=O)O[C@H]1C)C[C@H](O)[C@H]2C(=O)O [AMB, amphotericin B, reference compound] ; assay system Candida glabrata ATCC 90030; MFC recorded at 0.5
